- ASSAY METHOD TEXT: AUC(infinity) in Sprague-Dawley rat model of bleomycin-induced pulmonary fibrosis at 5 mg/kg, po by LC-MS/MS analysis
- Assay type: ADME, organism-based
- Design: time infinity, dose 5 mg/kg, route po
- REPORTED CONDITIONS: in vivo
PROPERTY: AUC(0-inf) (ng·h/mL)

(Q) AUC(0-inf) lookup needed for Cc1cc(=O)n(-c2ccc(N3CCC(Cc4ccc(Cl)c(F)c4)CC3)c(Cl)c2)c(C)n1 , thanks.
(A) 17100

(I) Cc1cc(=O)n(-c2ccc(N3CCC(Cc4cccc5ccccc45)CC3)c(F)c2)c(C)n1
(II) Cc1cc(=O)n(-c2ccc(N3CCC(COc4cccc(F)c4)CC3)c(Cl)c2)c(C)n1
(III) Cc1cc(=O)n(-c2ccc(N3CCC(Cc4cccc(C(F)(F)F)c4)CC3)c(Cl)c2)c(C)n1
(IV) Cc1cc(=O)n(-c2ccc(N3CCOCC3)c(F)c2)c(C)n1
(Q) Rank items: key AUC(0-inf), increasing. Output spec: a listing of the labels in the requested order.
(A) I, II, III, IV
(I: 1600 ng·h/mL, II: 3410 ng·h/mL, III: 7080 ng·h/mL, IV: 33500 ng·h/mL)

(A) Cc1cc(=O)n(-c2ccc(N3CCC(Cc4cccc(Cl)c4)CC3)c(Cl)c2)c(C)n1
(B) Cc1cc(=O)n(-c2ccc(N3CCC(Cc4cc(F)c(F)c(F)c4)CC3)c(Cl)c2)c(C)n1
(Q) Between the entries labeled A and B , whose measured AUC(0-inf) is lower? I would appreciate it if you answered with the label of your choice.
(A) A
(A: 2030 ng·h/mL, B: 6360 ng·h/mL)
